Reference source for all entries: patent US10011562B2

# The hold time of motor blocking annotations
# System: sciatic nerve of rats
# PROCEDURE SUMMARY: First local anesthetic experiment of rats: blocking of sciatic nerve, motor function by hindlimb postural extensor thrust (PET)
# Format: in vivo
# EXPERIMENTAL SETUP: rat, in vivo
Quick reminder: number only, in h, skip the unit.

Example entries begin here.
CCCCCCCCCOC(=O)OCC[N+](CC)(CC)CC(=O)Nc1c(C)cccc1C [Example18product]
60
CCOC(=O)OCC[N+](CC)(CC)CC(=O)Nc1c(C)cccc1C
82
CCCCCCCOC(=O)OCC[N+](CC)(CC)CC(=O)Nc1c(C)cccc1C [Example14product]
70

## Input Return reported The hold time of motor blocking; argument: CCCCCCCCCCCCOC(=O)OCC[N+](CC)(CC)CC(=O)Nc1c(C)cccc1C [Example27product]
## Output 80

## Input Please give the measured The hold time of motor blocking for this compound: CCCCCCCCOC(=O)OCC[N+](CC)(CC)CC(=O)Nc1c(C)cccc1C [Example16product]
## Output 62

## Input Item CCCCCCCCCCCCCCCCOC(=O)OCC[N+](CC)(CC)CC(=O)Nc1c(C)cccc1C [Example29product] has what recorded The hold time of motor blocking?
## Output 80

## Input Request the reported The hold time of motor blocking associated with CCCCCCCCCCCCCCOC(=O)OCC[N+](CC)(CC)CC(=O)Nc1c(C)cccc1C
## Output 79

## Input GET /values?readout=The hold time of motor blocking&item= CCCCCCCCCCCCCCCCCCOC(=O)OCC[N+](CC)(CC)CC(=O)Nc1c(C)cccc1C
## Output 80

## Input So what's the measured The hold time of motor blocking for this one? CCCCCCCCCCCOC(=O)OCC[N+](CC)(CC)CC(=O)Nc1c(C)cccc1C
## Output 80

## Input Look up The hold time of motor blocking: CCCCCCCCCCCCCCCC(=O)OCC[N+](CC)(CC)CC(=O)Nc1c(C)cccc1C
## Output 81

* * *

// reported The hold time of sensation blocking per item
# System: sciatic nerve of rats
# PROCEDURE SUMMARY: First local anesthetic experiment of rats: blocking of sciatic nerve, mechanical withdrawal threshold (VFH, von Frey filaments)
# Assay type: in vivo
# EXPERIMENTAL SETUP: rat, in vivo
# From the text: Selected above micelle, positive control lidocaine, and negative control normal saline were respectively administrated to 28 groups of test rats fully adapted to experiment environment, with five rats for each group. […]
Provide the reading as a plain figure in h.

CCCCCCCCCCCCCCCCOC(=O)OCC[N+](CC)(CC)CC(=O)Nc1c(C)cccc1C [Example29product]
78
CCCCCCCCCOC(=O)OCC[N+](CC)(CC)CC(=O)Nc1c(C)cccc1C [Example18product]
88
CC[N+](CC)(COC(=O)C(C)(C)C)CC(=O)Nc1c(C)cccc1C
8
CCCCCCOC(=O)OCC[N+](CC)(CC)CC(=O)Nc1c(C)cccc1C
79
CCCCCCCCCCOC(=O)OCC[N+](CC)(CC)CC(=O)Nc1c(C)cccc1C [Example23product]
82
CCCCCCCCOC(=O)OCC[N+](CC)(CC)CC(=O)Nc1c(C)cccc1C [Example17product]
82
CCCCCCCCCCCCOC(=O)OCC[N+](CC)(CC)CC(=O)Nc1c(C)cccc1C [Example26product]
80
CCCCCCCCCCCCCCOC(=O)OCC[N+](CC)(CC)CC(=O)Nc1c(C)cccc1C
76

## Input Recorded The hold time of sensation blocking for CCCCCCCCCCCC(=O)OCC[N+](CC)(CC)CC(=O)Nc1c(C)cccc1C with sciatic nerve of rats, please?
## Output 80

## Input What measured The hold time of sensation blocking is associated with CCCCCCCCCCCCCCCC(=O)OCC[N+](CC)(CC)CC(=O)Nc1c(C)cccc1C on sciatic nerve of rats?
## Output 81

## Input Lab request: please report The hold time of sensation blocking under test system sciatic nerve of rats for CCCCCCCCOC(=O)OCC[N+](CC)(CC)CC(=O)Nc1c(C)cccc1C [Example16product]
## Output 85

## Input # query: The hold time of sensation blocking | item CCOC(=O)OCC[N+](CC)(CC)CC(=O)Nc1c(C)cccc1C | system: sciatic nerve of rats
## Output 82

## Input Lookup: The hold time of sensation blocking / sciatic nerve of rats / CCCCOC(=O)OCC[N+](CC)(CC)CC(=O)Nc1c(C)cccc1C
## Output 80

## Input Provide value of The hold time of sensation blocking for this record tested with sciatic nerve of rats: CCCCCCCCCCCOC(=O)OCC[N+](CC)(CC)CC(=O)Nc1c(C)cccc1C
## Output 81

* * *

# Test system: sciatic nerve of rats
# PROCEDURE SUMMARY: Third local anesthetic experiment of rats: hydrogels embedded near the sciatic nerve, mechanical withdrawal threshold (VFH)
# Format: in vivo
# EXPERIMENTAL SETUP: rat, in vivo
In this section we review reported Effective local anesthetic time values for a set of compounds.
Report the figure in min without appending any unit label.

CCCCCCCCCOC(=O)OCC[N+](CC)(CC)CC(=O)Nc1c(C)cccc1C [Example19product]
65
CCCCCCCCCCCCCCCCCCOC(=O)OCC[N+](CC)(CC)CC(=O)Nc1c(C)cccc1C [Example31product]
92
CCCCCCCCCCOC(=O)OCC[N+](CC)(CC)CC(=O)Nc1c(C)cccc1C [Example23product]
80

Next up:
## Input Give its Effective local anesthetic time value. Item: CCCCCCCOC(=O)OCC[N+](CC)(CC)CC(=O)Nc1c(C)cccc1C [Example14product]
## Output 45

* * *

Examples of compounds with documented The hold time of motor blocking follow.
# System: sciatic nerve of rats
# PROCEDURE SUMMARY: First local anesthetic experiment of rats: blocking of sciatic nerve, motor function by hindlimb postural extensor thrust (PET)
# Assay type: in vivo
# EXPERIMENTAL SETUP: rat, in vivo
# From the text: Selected above micelle, positive control lidocaine, and negative control normal saline were respectively administrated to 28 groups of test rats fully adapted to experiment environment, with five rats for each group. […] The hindlimb postural extensor thrust (PET) was used for evaluation. […] When limbs were completely paralytic, the digital reading was the weight of limbs, about 20 g. […]
Report the value in h with no unit label.

## Input # input compound: CCCCCCCCOC(=O)OCC[N+](CC)(CC)CC(=O)Nc1c(C)cccc1C [Example17product] ; wanted: its The hold time of motor blocking
## Output 62

## Input // lookup The hold time of motor blocking for CCCCCCOC(=O)OCC[N+](CC)(CC)CC(=O)Nc1c(C)cccc1C
## Output 79

## Input // lookup The hold time of motor blocking for CCCCCCCCCCCCCCCCOC(=O)OCC[N+](CC)(CC)CC(=O)Nc1c(C)cccc1C [Example30product]
## Output 78

## Input # lookup: The hold time of motor blocking of CCCCCCCCCCCC(=O)OCC[N+](CC)(CC)CC(=O)Nc1c(C)cccc1C
## Output 80

* * *

Item-by-item account of The hold time of motor blocking
# Tested on: sciatic nerve of rats
# PROCEDURE SUMMARY: First local anesthetic experiment of rats: blocking of sciatic nerve, motor function by hindlimb postural extensor thrust (PET)
# Format: in vivo
# EXPERIMENTAL SETUP: rat, in vivo
Provide only the numeric value, understood in h.

CCCCCCCCCOC(=O)OCC[N+](CC)(CC)CC(=O)Nc1c(C)cccc1C [Example19product]
56
CCCCCCCOC(=O)OCC[N+](CC)(CC)CC(=O)Nc1c(C)cccc1C [Example15product]
66
CCCCCCCCCCOC(=O)OCC[N+](CC)(CC)CC(=O)Nc1c(C)cccc1C [Example23product]
62

Please find the next compound below.
## Input Need The hold time of motor blocking, item CCCC(=O)OC[N+](CC)(CC)CC(=O)Nc1c(C)cccc1C
## Output 8

* * *

# System: sciatic nerve of rats
# PROCEDURE SUMMARY: Third local anesthetic experiment of rats: hydrogels embedded near the sciatic nerve, mechanical withdrawal threshold (VFH)
# Type: in vivo
# EXPERIMENTAL SETUP: rats, 25 mmol/L hydrogel, 0.2 g embedded by surgery near sciatic nerve; lidocaine 2% (84 mmol/L) injected
Counter-ions that a name gives are not always drawn.
METRIC: The hold time of sensation blocking
Reply with the number and its unit after it.

## Input Provide the documented The hold time of sensation blocking with sciatic nerve of rats as the system for CCCCCCCCCCCCCCCC(=O)OCC[N+](CC)(CC)CC(=O)Nc1c(C)cccc1C
## Output 92 h

## Input Query the reported The hold time of sensation blocking for sciatic nerve of rats; item: CCCCCCCCCOC(=O)OCC[N+](CC)(CC)CC(=O)Nc1c(C)cccc1C [Example22product]
## Output 95 h

## Input # get_value(readout= The hold time of sensation blocking, system= sciatic nerve of rats) for CCN(CC)CC(=O)Nc1c(C)cccc1C [2% lidocaine hydrochloride, lidocaine hydrochloride, reference compound]
## Output 2 h

## Input // lookup The hold time of sensation blocking | system=sciatic nerve of rats | key= CCCCCCCCCOC(=O)OCC[N+](CC)(CC)CC(=O)Nc1c(C)cccc1C [Example21product]
## Output 88 h

## Input For the record CCCCCCCCCCCC(=O)OCC[N+](CC)(CC)CC(=O)Nc1c(C)cccc1C , what value of The hold time of sensation blocking is listed for sciatic nerve of rats?
## Output 90 h
